- experiment.summary: Cytotoxicity, MTT assay
- Assay type: cell-based, human
- test.parameters: human, HEK 293 cells
Where a SMILES comes first, the peptide text is derived from it. [ ]: non-standard residue; d: D form. The star is where a group is joined. Dab = NCC[C@H](N)C(=O)O; Hexanoyl = CCCCCC(=O)*
assay.endpoint: viability at 24 h, 60 µg/mL
Respond with the figure and its unit, in that order.

Looking up CCCCCC(=O)N[C@@H](CCN)C(=O)N[C@H](C(=O)N[C@@H](CCN)C(=O)N[C@H](Cc1ccccc1)C(=O)N[C@@H](CC(C)C)C(=O)N[C@@H](CCN)C(=O)N[C@@H](C(=O)N[C@@H](CC(C)C)C(=O)N[C@@H](CO)C(N)=O)C(C)C)[C@@H](C)CC [Analogue 1] (Hexanoyl-[Dab]I[Dab][dF]L[Dab][dV]LS-NH2) , I found its viability at 24 h, 60 µg/mL recorded as 78.4%
